Read-out: Tissue Factor, F3 (gene 2152)
Experiment: BSK_LPS_TissueFactor: BioMAP Diversity Plus: LPS Assay for Tissue Factor Biomarker Activity (AID 2283084)
Conditions: primary human HUVEC with PBMC; actives raise or lower the signal
Active and inactive are the calls of the source. The calls were made as follows: active = hit-call score of the fitted dose curve at least 0.9, where 1 is the maximum; inactive = score below 0.9.
READOUT_LABEL: AC50

{"columns": ["COMPOUND", "RECORDED_MEASUREMENT"],
 "data": [
  ["CNC(=O)Oc1ccccc1OC(C)C", "inactive"],
  ["CCOc1nc(NC)nc(NC(=O)NS(=O)(=O)c2ccccc2C(=O)OC)n1", "inactive"],
  ["CC1(C)C(C=C(Cl)Cl)C1C(=O)OC(C#N)c1ccc(F)c(Oc2ccccc2)c1 (stereo unspecified)", "inactive"],
  ["COC(=O)c1ccccc1S(=O)(=O)NC(=O)N(C)c1nc(C)nc(OC)n1", "inactive"]
]}

Look up AC50 for this compound: COP(=O)(OC)OC=C(Cl)Cl
inactive

Look up AC50 for this compound: CC1(c2ccc(Oc3ccccc3)cc2)OC(=O)N(Nc2ccccc2)C1=O (stereo unspecified)
28.4 µM (active)

Look up AC50 for this compound: CCC(C)(NC(=O)c1cc(Cl)c(C)c(Cl)c1)C(=O)CCl (stereo unspecified)
5.21 µM (active)

Look up AC50 for this compound: CCc1ccc(C(=O)NN(C(=O)c2cc(C)cc(C)c2)C(C)(C)C)cc1
inactive

Look up AC50 for this compound: Clc1ccccc1-c1nnc(-c2ccccc2Cl)nn1
inactive

Look up AC50 for this compound: CCC(C)Nc1c([N+](=O)[O-])cc(C(C)(C)C)cc1[N+](=O)[O-] (stereo unspecified)
inactive

Look up AC50 for this compound: Cc1[nH]c(=O)n(C(C)(C)C)c(=O)c1Cl
inactive
